Source of measurements: the supplement of paper PMC12764529

Here the recorded folding stability dG unfold is given for each entry.
- assay_text: folding stability dG unfold from trypsin proteolysis; higher = more stable
recorded_endpoint: folding stability dG unfold

>>> value_observed("SAGGSAGGMIYKFTYPKGEPPLLFTYDPSTGKVTVTEPKTGKPLGTVDLSLEEAVKAGARIEPVSAGGSAGG [r6_832_JUSTAS]")
"0.44 kcal/mol"
>>> value_observed("SAGGMTIELTIVAETEEEAEKAAEELARKLAELYPDLKVKVTVEKVEVKDEETGKTYLVYKVRIEIEPSAGG [r13_545_TrROS_Hall]")
"4.47 kcal/mol"
>>> value_observed("SAGGSASVTRMIQIPPGDPNMSIEEAIEKIKIYLPNGKPVTIEIDRIWPDPNRYFFMITIKDGKPVSAGGSA [r15_331_TrROS]")
"1.21 kcal/mol"
>>> value_observed("SAGGSAGGSKKPIPVKVIETKPDPEIGGITTVELEFPDGSKATFTSIEDIEKIPDIEVEIKLGSAGGSAGGS [r20_192_TrMRF]")
"0.591 kcal/mol"
>>> value_observed("SAGGSAGGSASIEVEAEPAEIEKVAEEAPEDEEVLVRDPKTGRVYLVKPDEVVLLREVPALLSAGGSAGGSA [r18_246_JUSTAS]")
"-0.238 kcal/mol"
>>> value_observed("SSVPADAAPVTVTETVTVTLPVDTATGGVPEERVAAAREAAAARGFTEFTVTTDPAAGTVTVTVTRTSRVSA [r9_201_JUSTAS]")
"0.77 kcal/mol"
>>> value_observed("SAGGSAGGSAGGKIKVVFELPDAPLFLVAEADSPEELLERAVKLEEELGVPLKVVKVEGSAGGSAGGSAGGS [r10_1087_TrMRF]")
"-0.509 kcal/mol"
>>> value_observed("SAGGSAGGKLKINNEEIGPDKSFPLKKGKEIKVYKDYVKVFVIDPKTNKKKEYTIKLEDLKKLFSAGGSAGG [r6_940_TrMRF]")
"0.437 kcal/mol"
>>> value_observed("SAGGSVEIWILLPPNNPDLDKIREKLRDEPGIDDVNVKVVKPTPGYWVFEIEVNGDPEVADKIRDLISAGGS [r16_394_TrROS]")
"1.09 kcal/mol"
>>> value_observed("SKKPDYVILIEIEVEKNENGEKTIKKKIIIYDKNGKKKLIAEEEITIEVNGIKIKIKIKIFPKGASLEELSA [r9_1113_TrROS_Hall]")
"3.51 kcal/mol"
>>> value_observed("SAGMKITYKRPDGTPAEPIPEEEIKKLAEEKAKELYPNKPDATVTVTITIKTNNNEPLIITMTVTIKNESAG [r5_526_JUSTAS]")
"0.982 kcal/mol"
>>> value_observed("SAGGMTVTVLEVTEEEVIIDDKKEKIITITIKLPDGTEITVTLSTSEIEAKGLTKEEAVEYIAKKLLSAGGS [r16_625_JUSTAS]")
"3.55 kcal/mol"
>>> value_observed("SAGKINIPPDTDITVKISTEKKPNPPSPEEEEYVGVSYIKVKKNPDGSIEVEEEKFEIISKEEAEKMGLSAG [r5_340_JUSTAS]")
"0.16 kcal/mol"
>>> value_observed("SAGGMTPEELREKAKKLAEELAKKLKEKYPNVKVEVEVDEETKKVKIKVKNKKTGKTYEITINLEELLSAGG [r13_354_TrROS_Hall]")
"3.85 kcal/mol"
